testedSystem: FabH (Escherichia coli, UniProt P0A6R0)
Sequence (P0A6R0 whole entry): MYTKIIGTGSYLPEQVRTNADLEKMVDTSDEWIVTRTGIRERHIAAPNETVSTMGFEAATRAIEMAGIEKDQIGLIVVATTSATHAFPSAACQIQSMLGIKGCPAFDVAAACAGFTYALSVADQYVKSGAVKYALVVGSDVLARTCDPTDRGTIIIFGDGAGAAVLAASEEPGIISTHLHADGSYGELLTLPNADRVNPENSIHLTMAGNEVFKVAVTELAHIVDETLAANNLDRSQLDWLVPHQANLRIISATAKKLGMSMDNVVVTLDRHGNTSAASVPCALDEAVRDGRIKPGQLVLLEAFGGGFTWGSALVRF
assayRemarks: continuous UV-Vis assay for the production of acetoacetyl-CoA
Type: biochemical
measurementContext: read-out: Ki (substrate inhibition); varying malonyl-CoA, acetyl-CoA at 125 μM; substrate inhibition model
pKi: −log10 of the molar value.
measuredParameter: pKi

# lineNotation, testedSystem, measuredValue
records = [
    ("CC(C)(COP(=O)(O)OP(=O)(O)OC[C@H]1O[C@@H](n2cnc3c(N)ncnc32)[C@H](O)[C@@H]1OP(=O)(O)O)[C@@H](O)C(=O)NCCC(=O)NCCSC(=O)CC(=O)O", "FabH (Escherichia coli, UniProt P0A6R0)", 2.72),
]

----------
testedSystem: FabH (Escherichia coli)
assayRemarks: continuous UV-Vis assay for the production of acetoacetyl-CoA
Type: biochemical
measurementContext: competition with malonyl-CoA binding assumed; pH 8.0, 50 mM Mg2+
Flag rule - Ki less than 800 µM flags Yes; the remaining entries get No.

# lineNotation, cat
data = [
    ("CC(C)(COP(=O)(O)OP(=O)(O)OC[C@H]1O[C@@H](n2cnc3c(N)ncnc32)[C@H](O)[C@@H]1OP(=O)(O)O)[C@@H](O)C(=O)NCCC(=O)NCCNC(=O)CC(=O)O", "Yes"),
    ("CC(C)(COP(=O)(O)OP(=O)(O)OC[C@H]1O[C@@H](n2cnc3c(N)ncnc32)[C@H](O)[C@@H]1OP(=O)(O)O)[C@@H](O)C(=O)NCCC(=O)NCCO", "Yes"),
    ("CC(C)(COP(=O)(O)OP(=O)(O)OC[C@H]1O[C@@H](n2cnc3c(N)ncnc32)[C@H](O)[C@@H]1OP(=O)(O)O)[C@@H](O)C(=O)NCCC(=O)NCCS", "Yes"),
    ("CC(C)(COP(=O)(O)OP(=O)(O)OC[C@H]1O[C@@H](n2cnc3c(N)ncnc32)[C@H](O)[C@@H]1OP(=O)(O)O)[C@@H](O)C(=O)NCCC(=O)NCCN", "No"),
]

----------
testedSystem: FabH (Escherichia coli)
assayRemarks: continuous UV-Vis assay for the production of acetoacetyl-CoA
Assay type: biochemical
measurementContext: competition with malonyl-CoA binding assumed; pH 8.0, 50 mM Mg2+

# molecule, testedSystem, Ki [µM]
records = [
    ("CC(=O)NCCNC(=O)CCNC(=O)[C@H](O)C(C)(C)COP(=O)(O)OP(=O)(O)OC[C@H]1O[C@@H](n2cnc3c(N)ncnc32)[C@H](O)[C@@H]1OP(=O)(O)O [compound 2, acetyl-aza(dethia)CoA]", "FabH (Escherichia coli)", 800),
    ("CC(C)(COP(=O)(O)OP(=O)(O)OC[C@H]1O[C@@H](n2cnc3c(N)ncnc32)[C@H](O)[C@@H]1OP(=O)(O)O)[C@@H](O)C(=O)NCCC(=O)NCCOC(=O)CC(=O)O [compound 3, malonyl-oxa(dethia)CoA]", "FabH (Escherichia coli)", 800),
]
